B1: KCNA1 (parent)
chain: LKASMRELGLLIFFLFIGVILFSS

variants of: B1; assay: protein stability index of a GFP-peptide fusion (GPS, HEK-293T) (PSI 1-6); higher = more stable; settings: c terminus: a fixed tail appended;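 further: lentivirally expressed fusions sorted by FACS into six bins by GFP to DsRed ratio, PSI derived from sequencing read proportions per bin multiplied by bin number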
Form field: protein stability index (one value per entry).
EXPERIMENTAL READOUT: protein stability index

• I20K = 3.18
• F22L = 2.25
• S4T = 2.46
• A3M = 1.58
• L21I = 2.17
• F22K = 2.81
• F16G = 3.06
• F13L = 2.16
• L8K = 2.58
• S23P = 2.42
• R6C = 3.31
• M5D = 2.29
• M5Y = 2.42
• V19T = 3.34
• K2E = 3.11
• S23D = 2.75
• L11F = 1.74
• V19Q = 3.09
• F16S = 2.55
• G18M = 2.2
• G18P = 1.86
• F14P = 4.04
